MEASUREMENT NOTES: optical density change of DRC41 E. coli – strain DRC41, OD650, 24 h, E. coli filamentation project, primary screen (AID 1093);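 note: MC1000 strain lacking acrAB efflux and sulA so SOS filamentation is blocked; test concentration not given here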
MEASUREMENT CONTEXT: E. coli DRC41 growth, higher = more signal, called active from +8 up or from −8 down
VALUE TYPE: z-score
Would you mind answering with just the numeric figure?

Worked cases, answers included:
# COMPOUND, TEST RESULT
rows = [
    ("C[N+](C)(C)CCCC[C@@H]1NC(=O)[C@@H]2C[C@H](C(=O)NCCCCCCN)[C@H](c3cccc(OCCO)c3)N2C1=O", 0.0037),
    ("COc1ccc(CCNC(=O)[C@@]2(Cc3ccccc3I)c3ccccc3C(=O)N(C3CCCCC3)[C@H]2c2ccc(CO)cc2)cc1", -1.41),
    ("COCCOC(=O)N1C(=O)[C@@]2(c3cc(C#CCCO)ccc31)[C@H](c1ccc(OCCO)cc1)N1[C@H](c3ccccc3)[C@H](c3ccccc3)OC(=O)[C@H]1[C@@H]2C(=O)Nc1nc2ccccc2s1", 0.235),
]

Any idea what z-score was measured for "CCOC(=O)C=Cc1cccc(C)c1O" ?
0.666

Can you look up the measured z-score of "COC(=O)c1c(CC[C@@H](CO)NC(=O)N[C@@H](C)Cn2cc(-c3ccccn3)nn2)oc(C(C)=O)c1C(=O)OC" for me?
-0.608

Which z-score reading was recorded for the compound "COCCOC(=O)N1C(=O)[C@@]2(c3cc(C#CCNC(N)=O)ccc31)[C@H](C(N)=O)[C@H]1C(=O)O[C@H](c3ccccc3)[C@H](c3ccccc3)N1[C@@H]2c1ccccc1OCCO" ?
-0.658

Using the record for CC(C)(C)OC(=O)CC[C@@]1(C(=O)NCC(O)CO)N=C(c2ccc(OCCCO)cc2)O[C@@H]1c1ccccc1CN=[N+]=[N-] (some centres not stated) , report its z-score.
0.188

###

TARGET: Torsin-1A (Homo sapiens) (UniProt O14656)
Sequence (O14656 whole entry, looked up): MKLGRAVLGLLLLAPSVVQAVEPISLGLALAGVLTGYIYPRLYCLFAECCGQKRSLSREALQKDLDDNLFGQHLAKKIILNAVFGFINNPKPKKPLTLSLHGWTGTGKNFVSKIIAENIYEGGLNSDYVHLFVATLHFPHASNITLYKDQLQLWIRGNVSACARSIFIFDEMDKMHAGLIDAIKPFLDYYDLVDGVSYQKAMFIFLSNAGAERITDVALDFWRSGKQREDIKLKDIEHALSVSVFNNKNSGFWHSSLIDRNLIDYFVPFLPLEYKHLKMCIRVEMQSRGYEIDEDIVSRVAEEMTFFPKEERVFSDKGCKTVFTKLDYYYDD
MEASUREMENT NOTES: TOR1A wild-type binding on microarray – cell lysate, small-molecule microarray, lysate, 635/667 nm, primary screen (AID 1149)
MEASUREMENT CONTEXT: COS7 hTOR1A-WT lysate, 635 nm fluorescence, higher = more signal
# label = yes if composite z-score >= -0.04 else no

Before answering, review these 5 worked examples.
# COMPOUND, CLASS LABEL
measured = [
    ("C=CC[C@@H](OC(=O)Nc1ccc(OC)cc1)c1ccc(O)c(F)c1", "no"),
    ("C=C[C@@H](CO)N(Cc1ccc(OC)cc1)S(=O)(=O)c1ccc(Br)cc1", "yes"),
    ("CCOC(=O)C[C@H]1[C@H](OC(=O)Cc2ccc3c(c2)OCO3)[C@@H](NC(=O)C2CCCCC2)c2cc(OCCCO)ccc2N1C(=O)c1ccccc1", "no"),
    ("[N-]=[N+]=Nc1ccccc1C[C@]1(C(=O)N2CCOCC2)COC(c2ccc(OCCCO)cc2)=N1", "yes"),
    ("Cc1ccc(S[C@]2(C(=O)NCc3ccccc3)CC(=O)N(C3CCCCC3)[C@@H]2c2ccc(CO)cc2I)cc1", "yes"),
]

Determine whether measured composite z-score meets or exceeds -0.04 for CCCC=C(CCC)[C@@H](NS(=O)(=O)CC12CCC(CC1=O)C2(C)C)c1ccc(C(=O)OC)cc1 (stereo partly specified)
yes

Check the entry CC(C)C(CO)N1C(=O)[C@@H]2[C@H]3C(=O)OCC=C[C@H]3OC23C=CCN(c2ccc(Cl)cc2)C(=O)[C@@H]13 (stereo partly specified) : does composite z-score equal or exceed -0.04?
no

Decide: is the reported value of composite z-score for "COC(=O)[C@@]1(Cc2ccc(F)cc2)[C@H]2c3cc(C(=O)N(C)C)n(CCc4ccc(OC)c(Br)c4)c3C[C@H]2CN1C(=O)c1ccccc1" equal to or greater than -0.04?
yes

Form field: composite z-score at least -0.04? Entry: "O=C(NCCN1CCOCC1)[C@@H]1c2ccccc2C(=O)N(Cc2ccccc2Cl)[C@H]1c1ccc(CO)cc1"
no

Is composite z-score at least -0.04? Consider "[N-]=[N+]=Nc1ccccc1[C@@H]1OC(c2ccc(OCCCO)cc2)=N[C@]1(Cc1ccccc1)C(=O)N1CCCCC1"
yes

Could you verify whether the entry "COC(=O)[C@@H]1N=C(c2ccc(OCCCO)cc2)O[C@@H]1c1ccccc1" shows composite z-score of no less than -0.04?
yes

Say whether "C#CCN(Cc1ccccc1Br)[C@H](/C=C/c1ccccc1)[C@@H](O)Cc1ccccc1" shows composite z-score of -0.04 or more.
no

Is reported composite z-score greater than or equal to -0.04 here: "COCCOC(=O)N1C(=O)[C@@]2(c3cc(C#CC4=CCCCC4)ccc31)[C@H](c1ccccc1OCCO)N1[C@H](c3ccccc3)[C@H](c3ccccc3)OC(=O)[C@H]1[C@@H]2C(=O)NC[C@H](O)c1ccccc1"
yes

Please check the record CCCCCC1=C2CNC(C)(C(=O)OC)C=C2C(C)C1=O (stereo unspecified) and state if its composite z-score is at or above -0.04.
no

composite z-score >= -0.04 for "COc1cc2c(cc1O)C=[N+](Cc1sc3ccccc3c1Cl)CC2" ?
yes

Kindly determine if composite z-score recorded for "Cc1ccc(N2C(=O)c3ccccc3[C@@H](C(=O)NCCCN(C)C)[C@@H]2c2ccc(CO)cc2)nc1" is above or exactly -0.04.
yes

###

MEASUREMENT NOTES: change in splice reporter luminescence, either direction, cell-based, HEK293, spliceosome inhibition project, primary screen (AID 1101);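 note: HEK293 cells carrying a splicing-competent luciferase reporter gene; test concentration not given here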
MEASUREMENT CONTEXT: HEK293 splicing luciferase reporter, 24 h, higher = more signal, called active from +8 up or from −8 down
Category key, based on recorded z-score: low band: < -0.9; middle band: ≥ -0.9 and < 0.3; high band: ≥ 0.3

# COMPOUND, CLASS LABEL
records = [
    ("Cc1ccc(S[C@]2(C(=O)NCC(F)(F)F)CC(=O)N(Cc3cc(C(F)(F)F)cc(C(F)(F)F)c3)[C@@H]2c2ccc(CO)cc2I)cc1", "middle band"),
    ("C=C[C@@H](OC)[C@H](OC(=O)Nc1ccc(OC)cc1)c1ccc(O)c(F)c1", "middle band"),
]

// return the class label for "C=CCNC(=O)[C@@H]1[C@H]2C(=O)O[C@H](c3ccccc3)[C@H](c3ccccc3)N2[C@H](c2ccccc2OCCO)[C@@]12C(=O)Nc1ccc(C#CCC(C(=O)OC)C(=O)OC)cc12"
low band

Into which category would you place "CC#CCO[Si](C#Cc1ccccc1)(C(C)C)C(C)C" ?
high band

Quick check: band for CC1CC/C=C\[C@H]2OC34C=CCN(C(C)(C)C)C(=O)[C@H]3N(CCCCCO)C(=O)[C@@H]4C2C(=O)O1 (some centres undefined)
middle band

Which category does the recorded z-score put "COC(=O)[C@@]1(Cc2ccc(OC)cc2)[C@H]2c3cc(C(=O)N(C)C)n(Cc4ccc(C)o4)c3C[C@H]2CN1C(=O)c1ccccc1" in?
high band

Lab note: which band did "COCCOC(=O)N1C(=O)[C@@]2(c3cc(C#CC4(O)CCCCCC4)ccc31)[C@H](C(=O)Nc1nc3ccccc3s1)[C@H]1C(=O)O[C@H](c3ccccc3)[C@H](c3ccccc3)N1[C@@H]2c1ccc(O)cc1" land in?
high band

###

TARGET: Torsin-1A-interacting protein 1 (Homo sapiens) (UniProt Q5JTV8)
Sequence (Q5JTV8 whole entry, looked up): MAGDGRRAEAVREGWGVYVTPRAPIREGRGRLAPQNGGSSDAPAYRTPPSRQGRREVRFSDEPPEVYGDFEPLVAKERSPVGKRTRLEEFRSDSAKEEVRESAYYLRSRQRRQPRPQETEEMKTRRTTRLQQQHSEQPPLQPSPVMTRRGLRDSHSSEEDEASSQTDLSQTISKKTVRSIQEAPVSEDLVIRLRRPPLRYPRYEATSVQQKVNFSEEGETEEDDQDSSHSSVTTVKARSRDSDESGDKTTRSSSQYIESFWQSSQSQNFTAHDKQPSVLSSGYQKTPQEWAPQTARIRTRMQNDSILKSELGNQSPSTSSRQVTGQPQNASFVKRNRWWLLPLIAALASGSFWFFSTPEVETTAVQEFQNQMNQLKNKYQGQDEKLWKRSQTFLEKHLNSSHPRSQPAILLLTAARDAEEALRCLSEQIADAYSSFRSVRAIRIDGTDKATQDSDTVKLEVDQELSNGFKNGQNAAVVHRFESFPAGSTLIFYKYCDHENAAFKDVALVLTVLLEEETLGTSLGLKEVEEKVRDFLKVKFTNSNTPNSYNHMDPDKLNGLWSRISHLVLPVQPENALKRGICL
MEASUREMENT NOTES: compound microarray binding of lysate hLAP1 – cell lysate, small-molecule microarray, COS7 lysate, 635/667 nm fluorescence, primary screen (AID 1116)
MEASUREMENT CONTEXT: 635 nm fluorescence, higher = more signal
VALUE TYPE: composite z-score
API note: the answer field is a bare number with no unit suffix.

# COMPOUND, composite z-score
measured = [
    ("COCCOC(=O)N1C(=O)[C@@]2(c3cc(C#CCCO)ccc31)[C@H](C(=O)Nc1nc3ccccc3s1)[C@H]1C(=O)O[C@H](c3ccccc3)[C@H](c3ccccc3)N1[C@@H]2c1ccc(O)cc1", 0.549),
    ("CC#CCO[Si](C#Cc1ccccc1)(C(C)C)C(C)C", -0.785),
    ("COC(=O)[C@@]1(Cc2ccccc2)[C@H]2c3cc(C(=O)N4CCCC4)n(CCc4ccccn4)c3C[C@H]2CN1C(=O)c1ccccc1", 2.53),
    ("CC(C)N1C(=O)c2ccccc2[C@@H](C(=O)NCCN2CCOCC2)[C@@H]1c1ccc(CO)cc1", -0.171),
]

composite z-score for "COCCOC(=O)N1C(=O)[C@@]2(c3cc(C#CCNC(N)=O)ccc31)[C@H](C(N)=O)[C@H]1C(=O)O[C@H](c3ccccc3)[C@H](c3ccccc3)N1[C@@H]2c1ccccc1OCCO" ?
1.26

Entry under review: "O=C1N(CCS(=O)(=O)c2ccccc2)c2ccccc2[C@H]2OC(c3ccc(OCCCO)cc3)=N[C@@]12Cc1ccccc1" . Reported composite z-score?
2.03

Tell me the measured composite z-score of OCCCC1=CC(c2ccc(CN3CCCC3)cc2)N(Cc2cc3c(cc2Br)OCO3)CC1 (stereo unspecified) , please.
1.17

Look up composite z-score: COc1cc2c(cc1O)C(c1ccc(CN3CCCC3)cc1)N(Cc1cc3c(cc1Br)OCO3)CC2 (stereo unspecified)
0.16

I have this compound here, CC1CC/C=C\[C@H]2OC34C=CCN(C(C)(C)C)C(=O)[C@H]3N(CCCCCO)C(=O)[C@@H]4C2C(=O)O1 (stereo partly specified) , and I need its recorded composite z-score.
-0.348

I am curious: what composite z-score value has been reported for COC(=O)C1(CC(C)C)C=C2C(=C(c3ccccc3)C(=O)C2C)CN1 (stereo unspecified) ?
1.09

Would you mind telling me what composite z-score value was observed for "CCOC(=O)C[C@H]1[C@H](OC(=O)c2cc3ccccc3oc2=O)[C@@H](NC(=O)CC(C)C)c2cc(OCCCO)ccc2N1C(=O)c1ccc2ccccc2n1" ?
0.0785

Returns the measured composite z-score for the input compound. Input: "C=C(COC)/C(=C/C[C@H](OC(=O)c1ccncc1)c1ccc(CO)o1)c1cnc2ccccc2c1"
0.865

Name the recorded composite z-score for "C=C(/C(=C/C[C@H](OC(C)=O)c1ccc(CO)o1)c1cnc2ccccc2c1)C(C)C" .
1.07

I am curious: what composite z-score value has been reported for "CCOC(=O)C1=C[C@@H](c2ccccc2)N(S(=O)(=O)c2ccc(C)cc2)[C@H]1c1ccc(OC)cc1" ?
0.118

Could you share which composite z-score value was measured for "COc1ccc([C@H]2OC[C@@H]3C[C@H](Cc4ccccc4)C(=O)N32)cc1" ?
0.373

Given "CCCC[C@@H](O)C1=C(COc2ccccc2)C[C@H]2C(=O)N(Cc3ccccc3)C(=O)[C@H]2[C@H]1CO" , state its recorded composite z-score.
0.176

These measurements were taken from PubChem BioAssay.
